Biological target: G-protein coupled receptor 39 (Homo sapiens, UniProt O43194)
Sequence (O43194 whole entry): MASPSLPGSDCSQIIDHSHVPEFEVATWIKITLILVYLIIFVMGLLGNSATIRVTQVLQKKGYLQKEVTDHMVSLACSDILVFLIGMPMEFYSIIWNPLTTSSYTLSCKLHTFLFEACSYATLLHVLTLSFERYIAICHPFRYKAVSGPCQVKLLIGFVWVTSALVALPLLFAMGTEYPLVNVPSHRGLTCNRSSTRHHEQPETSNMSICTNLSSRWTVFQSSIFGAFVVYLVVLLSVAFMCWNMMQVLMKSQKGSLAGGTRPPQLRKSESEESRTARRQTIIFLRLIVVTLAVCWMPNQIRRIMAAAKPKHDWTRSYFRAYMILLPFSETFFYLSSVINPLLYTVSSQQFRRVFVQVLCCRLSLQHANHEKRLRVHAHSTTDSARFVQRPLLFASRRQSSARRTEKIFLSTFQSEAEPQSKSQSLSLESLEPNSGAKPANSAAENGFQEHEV
Assay: Agonist activity at human GPR39 expressed in HEK293 cells by cAMP assay
Format: functional, cell-based
Task for the reader: assign each of the following compounds its reported pEC50.
API: returns pEC50 as number; meaning -log10 of concentration in mol/L.

For reference, reported pEC50 for CNc1nc(NCc2ccc(NC(C)=O)cc2)cc(-c2ccccn2)n1 stands at 6.26

For reference, reported pEC50 for CNc1nc(NCc2ccc(NS(C)(=O)=O)cc2Cl)cc(-c2ccccn2)n1 stands at 7.22

For reference, reported pEC50 for CNc1nc(NCc2ccc(NS(C)(=O)=O)cc2)cc(-c2ccccn2)n1 stands at 6.74

For reference, reported pEC50 for [Cl-].[Cl-].[Zn+2] [ZINC CHLORIDE] stands at 5.44

For reference, reported pEC50 for CNc1nc(NCc2ccc(NC(C)=O)cc2F)cc(-c2ccccn2)n1 stands at 6.46

* * *

Assay: Cmax in C57BL/6 mouse at 100 mg/kg, po administered as single dose after 1 to 1.5 hrs by LC/MS/MS method
Type: ADME, organism-based
Parameters: dose 100 mg/kg, route oral
Details: in vivo
MEASURED PARAMETER: Cmax (µM)
Please reply with the bare figure in µM and do not write the unit itself.

For reference, reported Cmax for CNc1nc(NCc2ccc(NS(C)(=O)=O)cc2Cl)cc(-c2ccccn2)n1 stands at 25.3

* * *

Test: Oral bioavailability in Sprague-Dawley rat at 5 mg/kg
Type: ADME, organism-based
Conditions: in vivo
MEASURED PARAMETER: bioavailability (%)
Please reply with the bare figure in % and do not write the unit itself.

For reference, reported bioavailability for O=S(=O)(NC[C@H]1CC[C@H](CNc2cc(-c3ccccn3)nc(NC3CC3)n2)CC1)c1cccc(F)c1 stands at 25

* * *

Target: G-protein coupled receptor 39 (Homo sapiens)
Experiment: Agonist activity at human GPR39 expressed in HEK293 cells by IP1 assay
Format: functional, cell-based
Task for the reader: assign each of the following molecules its reported EC50.
Please reply with the bare figure in nM and do not write the unit itself.

For reference, reported EC50 for CNc1nc(NCc2ccc(NS(C)(=O)=O)cc2Cl)cc(-c2ccccn2)n1 stands at 0.8

For reference, reported EC50 for CC(C)(C)CNc1nc(NCC2CC2)cc(-c2ccccn2)n1 stands at 5000

For reference, reported EC50 for FC(F)(F)CNc1nc(NCc2ccc(Cl)cc2)cc(-c2ccccn2)n1 stands at 60

* * *

Biological target: G-protein coupled receptor 39 (Mus musculus, UniProt Q5U431)
Sequence (Q5U431 whole entry): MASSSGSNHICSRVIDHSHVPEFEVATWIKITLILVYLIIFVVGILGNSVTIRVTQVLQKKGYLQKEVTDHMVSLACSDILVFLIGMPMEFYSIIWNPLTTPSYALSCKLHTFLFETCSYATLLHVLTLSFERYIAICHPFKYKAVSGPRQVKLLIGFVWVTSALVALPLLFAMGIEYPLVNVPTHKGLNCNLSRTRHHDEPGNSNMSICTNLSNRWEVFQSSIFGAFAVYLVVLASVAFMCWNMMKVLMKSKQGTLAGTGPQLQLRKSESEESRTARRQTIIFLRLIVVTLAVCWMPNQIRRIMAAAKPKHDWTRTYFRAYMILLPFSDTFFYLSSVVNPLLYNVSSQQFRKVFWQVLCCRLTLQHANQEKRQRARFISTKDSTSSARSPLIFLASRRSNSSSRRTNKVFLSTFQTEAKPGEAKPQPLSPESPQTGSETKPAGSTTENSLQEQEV
Experiment: Agonist activity at mouse GPR39 expressed in HEK293 cells by IP1 assay
Type: functional, cell-based
pEC50: −log10 of the molar value.
Could you label it Y if measured pEC50 is 7 or higher, and N otherwise?

*Q* Please tell me: is the compound FC(F)(F)Oc1ccc(CNc2nc(NCC3CC3)cc(-c3ccccn3)n2)cc1 at or over 7 in terms of pEC50?
*A* Y

*Q* Please tell me: is the compound FC(F)(F)CNc1nc(NCc2ccc(Cl)cc2)cc(-c2ccccn2)n1 at or over 7 in terms of pEC50?
*A* Y

*Q* Please tell me: is the compound CNc1nc(NCc2ccncc2)cc(-c2ccccn2)n1 at or over 7 in terms of pEC50?
*A* N

*Q* Please tell me: is the compound CNc1nc(NCC2CCCCC2)cc(-c2ccccn2)n1 at or over 7 in terms of pEC50?
*A* Y

*Q* Please tell me: is the compound CNc1nc(NCc2ccc(Cl)cc2)cc(-c2ccccn2)n1 at or over 7 in terms of pEC50?
*A* Y

*Q* Please tell me: is the compound c1ccc(-c2cc(NCC3CC3)ncn2)nc1 at or over 7 in terms of pEC50?
*A* N

*Q* Please tell me: is the compound CC(C)(C)CNc1nc(NCC2CC2)cc(-c2ccccn2)n1 at or over 7 in terms of pEC50?
*A* N

Where do the numbers come from? From ChEMBL document CHEMBL3352269.
